Where do the numbers come from? From patent US9586986B2.

Test system: K562
Assay: Cytostatic/cytotoxic MTT assay, K562
Type: cell-based
Conditions: Homo sapiens, K562; 72 h incubation; read-out: MTT, IC50 K562
Reported values of pIC50 for individual entries
Recall that pIC50 is obtained by taking minus log10 of the concentration measured in molar.

Example cases with answers are listed next.
>  <structure-notation>
C#Cc1cn([C@@H]2O[C@H](CO)[C@@H](O)[C@H]2O)c2ncnc(C)c12

>  <target-desc>
K562

>  <pIC50>
5.16

$$$$
>  <structure-notation>
CN(C)c1ncnc2c1c(-c1ccco1)cn2[C@@H]1O[C@H](CO)[C@@H](O)[C@H]1O

>  <target-desc>
K562

>  <pIC50>
6.82

$$$$

pIC50 measured on COc1ncnc2c1c(-c1ccsc1)cn2[C@@H]1O[C@H](CO)[C@@H](O)[C@H]1O = 7.05

Documented pIC50 of CN(C)c1ncnc2c1c(I)cn2[C@@H]1O[C@H](CO)[C@@H](O)[C@H]1O : 7.15

// CSc1ncnc2c1c(-c1cccs1)cn2[C@@H]1O[C@H](CO)[C@@H](O)[C@H]1O : pIC50 value = 4.94

// sample COc1ncnc2c1c(-c1ccco1)cn2[C@@H]1O[C@H](CO)[C@@H](O)[C@H]1O , its pIC50 was 7.22

Per the record, COc1ncnc2c1c(-c1ccoc1)cn2[C@@H]1O[C@H](CO)[C@@H](O)[C@H]1O has pIC50 of 6.72
